experiment: binders of probe aHhip on microarray, primary screen, stem cell growth factor project, biochemical, small-molecule microarray, fluorescence 635/667 (AID 1087); details: higher = more signal;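 further: score merges spot fluorescence at 667nm with spot signal to noise ratio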
Would you mind telling me the reported composite z-score of each entry?

(Q) Value lookup for composite z-score; key = `C=CCN1C(=O)[C@@]2(Cc3ccccc31)N=C(c1ccc(OCCCO)cc1)O[C@H]2c1ccccc1`
(A) -0.144

(Q) Same lookup for `CN(C)CCCCCCNC(=O)[C@H]1C[C@H]2C(=O)N3CCC[C@H]3C(=O)N2[C@H]1c1ccc(O)cc1` , please.
(A) 0.151

(Q) Same lookup for `O=C1O[C@H](c2ccccc2)[C@H](c2ccccc2)N2[C@H]1[C@@H](C(=O)N1CCCCCCC1)[C@]1(C(=O)Nc3ccc(C#CC4=CCCCC4)cc31)[C@H]2c1ccc(OCCO)cc1` , please.
(A) 3.42

(Q) Same lookup for `C=C(CCCC)/C(=C/C[C@@H](OC(C)=O)c1ccc(OCCO)cc1)c1cnc2ccccc2c1` , please.
(A) -0.0618

(Q) Same lookup for `CC(C)(C)OC(=O)CC[C@]1(C(=O)N2CCOCC2)N=C(c2ccc(OCCCO)cc2)O[C@H]1c1ccccc1N=[N+]=[N-]` , please.
(A) 0.0515

Give composite z-score for each of the items listed below.
1. C=C(/C(=C/C[C@H](OC(C)=O)c1ccc(CO)o1)c1cc(C(=O)OC)ccc1OC)C(C)C
2. CC1(C)[C@@H]2CC(C(O)C3C=CC4C(=O)N(c5ccccc5)C(=O)C4N3Nc3ccc([N+](=O)[O-])cc3)=C[C@H]1C2 (stereo partly drawn)
3. COc1ccc(CCNC(=O)[C@@]2(Sc3ccc(C)cc3)CC(=O)N(C(C)C)[C@@H]2c2ccc(CO)cc2I)cc1

(A)
[0.119, -0.0852, -0.511]

* * *

test system: Lefty1; test: Lefty1 binders on small-molecule microarrays, primary screen, biochemical, small-molecule microarray, 635/667 nm fluorescence (AID 1139); settings: small-molecule microarray binding, fluorescence 635/667; higher = more signal
readout label: composite z-score
One number for each entry.

Past entries and their recorded results:
(Q) Value lookup for composite z-score; key = `C=CC(=C)[C@H]1Oc2ccccc2S(=O)(=O)N2CCC[C@@H]12`
(A) 0.201

(Q) Same lookup for `COC(=O)[C@H](Cc1ccccc1)N[C@@H](/C=C/C1CC1)[C@H](O)Cc1ccccc1` , please.
(A) -0.21

(Q) Same lookup for `COCCOC(=O)N1C(=O)[C@@]2(c3cc(C#CCNC(N)=O)ccc31)[C@H](C(=O)N1CCN(c3ncccn3)CC1)[C@H]1C(=O)O[C@H](c3ccccc3)[C@H](c3ccccc3)N1[C@@H]2c1ccc(OCCO)cc1` , please.
(A) 0.465

With those in mind, consider the next compound.
(Q) Value lookup for composite z-score; key = `CC[C@@H]1C=C(C(=O)O)[C@H](c2ccc(Br)cc2)N1S(=O)(=O)c1ccc(C)cc1`
(A) 0.0429

* * *

tested on: XIP peptide (Xip251-270); experiment: small-molecule binders of XIP peptide, primary screen, biochemical, small-molecule microarray, fluorescence 635/667 nm, 0.5 µg/mL protein (AID 1183); details: small-molecule microarray binding, fluorescence 635 nm; higher = more signal
Would you mind telling me the reported composite z-score of each entry?

(Q) Value lookup for composite z-score; key = CC1(C)C2C=C(C(O)C3C=CC4C(=O)NC(=O)C4N3Nc3ccc(Cl)cc3Cl)C[C@@H]1C2 (some centres not stated)
(A) 0.231

Give composite z-score for each of the items listed below.
1. COc1cc(NN2C(C(O)c3ccco3)C=CC3C(=O)N(c4ccccc4)C(=O)C32)cc(OC)c1OC (configuration not stated)
2. O=C(NCCN1CCOCC1)C1N=C(c2ccc(OCCCO)cc2)N(c2ccccc2)O1 (configuration not stated)

(A)
0.737
0.738

Give composite z-score for each of the items listed below.
1. C=C(/C(=C/C[C@H](OC(C)=O)c1ccccc1OCCO)c1cnc2ccccc2c1)C(C)C
2. COC(=O)[C@@]1(Cc2ccc(OC)cc2)[C@H]2c3cc(C(=O)N4CCCC4)n(Cc4ccc(O)c(OC)c4)c3C[C@H]2CN1C(=O)c1ccccc1
3. O=C(c1ccccc1)N1C(=O)[C@]2(COC(c3ccc(OCCCO)cc3)=N2)Cc2ccccc21
4. O=C1OCCC/C=C\[C@H]2OC34C=CCN(Cc5ccccc5)C(=O)[C@H]3N(CCCO)C(=O)[C@@H]4C12 (some centres not stated)
5. O=C1c2ccccc2[C@](Cc2ccccc2I)(C(=O)NCCN2CCOCC2)[C@H](c2ccc(CO)cc2)N1C1CCCCC1
6. COc1ccccc1CN1C(=O)c2ccccc2[C@@H](C(=O)NC2CC2)[C@@H]1c1ccc(CO)cc1
7. CCOC(=O)C[C@H]1[C@H](OC(=O)c2ccc(C(=O)c3ccccc3)cc2)[C@@H](NC(=O)c2ccc3ccccc3n2)c2cc(OCCCO)ccc2N1C(=O)c1ccccc1

(A)
1. -0.167
2. 0.575
3. 0.908
4. -0.616
5. 0.652
6. 0.835
7. 0.545

Give composite z-score for each of the items listed below.
1. C=CCC(OC(C)=O)[C@@H]1[C@@H](N(Cc2ccc(-c3ccccc3)cc2)C(=O)c2ccc(-c3ccccc3)cc2)c2cc(OCCCO)ccc2N1C(=O)Cc1ccc2ccccc2c1 (some centres not stated)
2. COc1ccc([Si](C)(C)[C@H]2[C@H](CCO)O[C@@]3(C(=O)N(Cc4ccc(N(C=O)c5ccccc5)cc4)c4ccccc43)[C@@H]2C)cc1
3. CN(C)CCCC[C@@H]1NC(=O)[C@@H]2C[C@H](C(=O)NCCCCCCN)[C@H](c3cccc(OCCO)c3)N2C1=O
4. CC(C)N1C(=O)C[C@@](C(=O)NCC(F)(F)F)(c2ccc([N+](=O)[O-])cc2)[C@H]1c1ccc(CO)cc1
5. O=C1N[C@@H](Cc2ccccc2)C(=O)N2[C@@H]1C[C@@H](C(=O)O)[C@H]2c1cccc(OCCO)c1
6. C=C(COC)/C(=C/C[C@H](OC(C)=O)c1ccc(CO)o1)c1cc(C(=O)OC)ccc1OC
7. COc1cc2c(cc1O)C(c1cccs1)N(C)CC2 (configuration not stated)
8. CCOC(=O)[C@H]1C/C=C/C[C@H](C(=O)OCC)C(=O)O[C@H]2[C@@H](OC)O[C@H](CO)[C@@H](OC(=O)c3c(OC)cccc3OC)[C@@H]2OC1=O

(A)
1. -0.241
2. 0.282
3. 0.919
4. 0.202
5. 0.465
6. -0.257
7. 0.594
8. 0.709

Give composite z-score for each of the items listed below.
1. O=C(c1ccccc1)N1Cc2ccccc2C[C@@]2(COC(c3ccc(OCCCO)cc3)=N2)C1=O
2. CN(C)C(=O)[C@]1(Cc2ccccc2N=[N+]=[N-])N=C(c2ccc(OCCCO)cc2)O[C@@H]1c1ccccc1N=[N+]=[N-]
3. O=C1C[C@@](C(=O)NCCN2CCOCC2)(c2ccc([N+](=O)[O-])cc2)[C@@H](c2ccc(CO)cc2I)N1CC12CC3CC(CC(C3)C1)C2
4. COc1ccc(/C=C/C=O)cc1
5. CN1C(=O)C2C=CC(C(O)C3CC=CCC3)N(N(c3ccccc3)c3ccccc3)C2C1=O (configuration not stated)
6. [N-]=[N+]=NCc1ccccc1C[C@]1(C(N)=O)COC(c2ccc(OCCCO)cc2)=N1
7. C=CCN1C(=O)[C@@]2(CC=C)N=C(c3ccc(OCCCO)cc3)O[C@H]2c2ccccc21
8. CC(C)CNC(=O)[C@@]1(Cc2ccccc2I)c2ccccc2C(=O)N(C2CCCCC2)[C@H]1c1ccc(CO)cc1

(A)
0.751
0.799
0.761
0.185
-0.283
0.817
0.751
0.696

Give composite z-score for each of the items listed below.
1. COc1cc(Br)cc(C(O)C2C=CC3C(=O)N(C)C(=O)C3N2N2CCCCC2)c1OC (configuration not stated)
2. COCC(=C=CC[C@@H](O)c1cccc(OCCO)c1)C[C@@H](O)c1ccccn1
3. [N-]=[N+]=NCc1ccccc1[C@@H]1OC(c2ccc(OCCCO)cc2)=N[C@]1(Cc1ccccc1)C(N)=O
4. C[C@@]1([C@@H](NC(=O)c2ccc(-c3ccccc3)cc2)c2ccc(Cl)cc2)C[C@H]1C1CCCCC1
5. [N-]=[N+]=Nc1ccccc1[C@H]1OC(c2ccc(OCCCO)cc2)=N[C@@]1(CCS(=O)(=O)c1ccccc1)C(=O)NCC(O)CO (some centres not stated)
6. COC(=O)[C@@]1(Cc2ccc(OC)cc2)[C@@H]2C(=CC(=O)[C@H]2CC(=O)C(=O)N2CCCC2)CN1C(=O)c1ccccc1

(A)
1. 0.823
2. 0.141
3. 0.689
4. 0.492
5. 0.557
6. 0.161

* * *

target: NADPH oxidase 2 (Homo sapiens); assay: NOX2-dependent H2O2 signal modulators, primary screen, NOX inhibitor project, cell-based, HEK293-NOX2, PMA-stimulated, Amplex Red fluorescence (AID 1159); settings: 45 min, higher = more signal, called active from +8 up or from −8 down
// condition not met strictly below 0.7 in z-score; condition met otherwise

Solved cases below.
(Q) API: above_or_equal(metric=z-score, cutoff=0.7) for item `CC(C)C[C@@H]1NC(=O)[C@@H]2C[C@H](C(=O)NCc3ccc(F)cc3)[C@H](c3cccc(OCCO)c3)N2C1=O`
(A) condition met

(Q) Same lookup for `COC(=O)C(CC#Cc1ccc2c(c1)[C@]1(C(=O)N2)[C@H](c2ccc(OCCO)cc2)N2[C@H](c3ccccc3)[C@H](c3ccccc3)OC(=O)[C@H]2[C@@H]1C(=O)Nc1nc2ccccc2s1)C(=O)OC` , please.
(A) condition met

(Q) Same lookup for `COC(=O)[C@@]1(Cc2ccc(F)cc2)[C@H]2c3cc(C(=O)N(C)C)n(Cc4cc(F)c(F)c(F)c4)c3C[C@H]2CN1C(=O)c1ccccc1` , please.
(A) condition not met

Next:
(Q) API: above_or_equal(metric=z-score, cutoff=0.7) for item `CCCC#C[Si](O[C@H](CC)c1cn(Cc2cccc(Cl)c2)nn1)(C(C)C)C(C)C`
(A) condition not met

(Q) Same lookup for `COCCCNC(=O)[C@@H]1c2ccccc2C(=O)N(Cc2ccccc2Cl)[C@H]1c1ccc(CO)cc1` , please.
(A) condition not met

(Q) Same lookup for `C=C[C@H](CO)NS(=O)(=O)c1ccc(Br)cc1` , please.
(A) condition met
